Assay: Selectivity index, ratio of IC50 for cytotoxicity against human MRC5 cells assessed as inhibition of cell growth to IC50 for antiplasmodial activity against […] assessed as parasite growth inhibition
Format: toxicity, cell-based
Conditions: MRC5 cells versus Plasmodium falciparum FCR3, read-out: Ratio IC50
selectivity ratio by entry:
experimental.endpoint: selectivity ratio

[[record]]
compound = "COC1=C(C)C(=O)c2c(cc3c(c2O)C(C)(CCC=C(C)C)C(C)O3)C1=O (centres undefined)"
observed = 28.3

[[record]]
compound = "C=CC(C)(C)c1c(O)cc2c(c1O)C(=O)[C@@](C)(O)[C@@H](CC=C(C)C)C2=O"
observed = 3.2

[[record]]
compound = "C=CC(C)(C)c1c(O)cc2c(c1O)C(=O)[C@@](C)(O)[C@H](CC=C(C)C)C2=O"
observed = 1.8

[[record]]
compound = "C=CC(C)(C)c1c(O)cc2c(c1O)C(=O)[C@@]1(C)O[C@@]1(CC=C(C)C)C2=O"
observed = 8.8

